# credit: PubChem BioAssay AID1159580

Consider the following molecules and their measured normalized growth readings.
assay: chemical genetic growth profiling, strain panel (AID 1159580);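 further: tested at 20 µM; growth read once vehicle control cultures reached saturation at 30 °C; 1 = growth at the plate median or of vehicle wells; lower values mean less growth of the strain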; conditions: S. cerevisiae deletion strains, growth OD, locus YLR221C, strain rsa3, stronger effect = lower value
The campaign covered roughly 5,500 compounds. About 2,000 (36%) were called active. About 18% were inconclusive and are not listed. This is one part of the list.
Answer with a bare number; do not write a unit.

Any idea what its normalized growth is? The molecule is CC1=CC2C(CC1=O)C(C)=CCC2C(C)C (centres undefined)
0.979

Any idea what its normalized growth is? The molecule is COc1ccc(CCN2CCC(Nc3nc4ccccc4n3Cc3ccc(F)cc3)CC2)cc1
0.951

Any idea what its normalized growth is? The molecule is NC(CO)C(=O)NNCc1ccc(O)c(O)c1O (centres undefined)
0.951

Any idea what its normalized growth is? The molecule is O=S1OCC2C(CO1)C1(Cl)C(Cl)=C(Cl)C2(Cl)C1(Cl)Cl (centres undefined)
0.931
